B1: FBF1 (parent)
chain: FGDSPKAEKRQIGDQEGPRPARST

Variants of: B1
Assay: protein stability index of a GFP-peptide fusion (GPS, HEK-293T) (PSI 1-6); higher = more stable;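 further: lentivirally expressed fusions sorted by FACS into six bins by GFP to DsRed ratio, PSI derived from sequencing read proportions per bin multiplied by bin number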
Details: c terminus: a fixed tail appended
ENDPOINT: protein stability index
Numbers only.

Recorded protein stability index, per entry:
FGDSPKAEKTQIGDQEGPRPARST [R10T] | 5.58
FGDSPPAEKRQIGDQEGPRPARST [K6P] | 4.89
FGDSPKAEKRCIGDQEGPRPARST [Q11C] | 5.06
FGDSPKAEKRQIGYQEGPRPARST [D14Y] | 4.54
FGDSPKAEKRQQGDQEGPRPARST [I12Q] | 5.5

Lab note: each variant below needs its protein stability index filled in.
1. FGDSPKAEKRQIGDQEGPRPAHST [R22H]
2. FGNSPKAEKRQIGDQEGPRPARST [D3N]
3. FGDNPKAEKRQIGDQEGPRPARST [S4N]
4. FGDSPKAEKRTIGDQEGPRPARST [Q11T]

1. 4.97
2. 5.06
3. 4.79
4. 5
